Value source: the Deep4Chem optical property database

Assay: photoluminescence quantum yield (fraction); solvent given as SMILES
Details: in CCCCO

mol smiles | photoluminescence quantum yield
COc1ccc2cc([C@H](C)C(=O)O)ccc2c1 | 0.17
CN(C)c1ccc(/C=C/C=C/c2nc3ccccc3o2)cc1 | 0.0045
COCCOCCOCCOc1ccc(OCCOCCOCCOC)c(C=O)c1 | 0.22

---

Test: photoluminescence quantum yield (fraction); solvent given as SMILES
Conditions: in CCOCC

compound | photoluminescence quantum yield
CN(C)c1ccc(C=C/C=C/C=C/c2ccc(C#N)cc2)cc1 | 0.092
C[C@]12C(=O)NC(=O)N([C@H]3CC(O)[C@@H](CO)O3)[C@H]1[C@H]1Oc3cc4oc(=O)ccc4cc3[C@H]12 (stereo not given in full) | 0.001
CN(C)c1ccc(C(=O)Nc2ccccc2)cc1 | 0.0036
N#Cc1ccc(/C=C2\OC(=O)c3cc(N)ccc32)cc1 | 0.031
CCC1(CC)c2cc(C=O)ccc2-c2ccc(N(C)C)cc21 | 0.71
CC(=O)c1nc(-c2ccc(N(C)C)cc2)oc1C | 0.016
CCN(CC)c1ccc2ccc(=O)oc2c1 | 0.8
O=S(=O)(c1ccc(-c2ccc(-c3nc4c5ccccc5c5ccccc5c4n3-c3ccccc3)cc2)cc1)c1ccc(-c2ccc(-c3nc4c5ccccc5c5ccccc5c4n3-c3ccccc3)cc2)cc1 | 0.992
COC(=O)C(Cc1ccc2oc(-c3ccc4c(c3)c3ccccc3n4-c3ccccc3)nc2c1)NC(=O)OC(C)(C)C (stereo not given) | 0.68
c1ccc(C2CCN3COc4c5ccccc5c5c6c7c(c2c3c46)C(c2ccccc2)CCN7CO5)cc1 (stereo not given) | 0.227

---

Assay: photoluminescence quantum yield (fraction); solvent given as SMILES
Settings: in c1ccccc1
Parameter: photoluminescence quantum yield. Scope: all listed entries.

mol smiles | photoluminescence quantum yield
CN(C)c1ccc(/C=C/C(=O)O)cc1 | 0.0112
CCCCCCCC1=C(C)C(=O)n2c1cc1[nH]c(C(=O)OC)c(C)c1c2=O | 0.1
CCC1=C(C)C(=O)n2c1cc1c(c(C)c(C(=O)OCC(C)C)n1CC(C)C)c2=O | 0.22
CCCCCCCCC1(CCCCCCCC)c2cc(-c3ccc(C(F)(F)F)cc3)ccc2-c2ccc(N(c3ccc(-n4c5ccccc5c5ccccc54)cc3)c3ccc4c(c3)C(CCCCCCCC)(CCCCCCCC)c3cc(-c5ccc(C(F)(F)F)cc5)ccc3-4)cc21 | 0.63
COc1ccc(-c2c3ccc([nH]3)c3nc(c(-c4ccc(C#N)cc4)c4ccc([nH]4)c4ccc([nH]4)c(-c4ccc(OC)cc4)c4ccc2o4)C=C3)cc1 | 0.147
CCN(CC)c1ccc2ccc(=O)oc2c1 | 0.83
Cc1nc2c(ccc3ccc(N(C)C)cc32)oc1=O | 0.084
COc1ccc(-c2cc(-c3ccc(C)cc3)nc3c(C#N)c(N4CCCC4)nc(N)c23)cc1 | 0.084

---

Assay: photoluminescence quantum yield (fraction); solvent given as SMILES
Details: in O=P(c1ccccc1)(c1ccccc1)c1ccccc1Oc1ccccc1P(=O)(c1ccccc1)c1ccccc1

mol smiles | photoluminescence quantum yield
c1ccc(-c2nc(-c3ccccc3)nc(-c3ccc(N4c5ccccc5C5(c6ccccc64)c4ccccc4N(c4ccc(-c6nc(-c7ccccc7)nc(-c7ccccc7)n6)cc4)c4ccccc45)cc3)n2)cc1 | 0.79
Cc1ccc(N(c2ccc(C)cc2)c2ccc3c(c2)c2cc(N(c4ccc(C)cc4)c4ccc(C)cc4)ccc2n3-c2ccc(-c3nc4cccc5c4n3-c3ccccc3C5(C)C)cc2)cc1 | 0.45
CC(C)(C)c1ccc2c(c1)c1cc(C(C)(C)C)ccc1n2-c1ccc(-c2nc(-c3ccc(-n4c5ccc(C(C)(C)C)cc5c5cc(C(C)(C)C)ccc54)cc3)nc(-c3ccc(P(=O)(c4ccccc4)c4ccccc4)cc3)n2)cc1 | 0.74
CC1(C)c2ccccc2N(c2ccc3c(c2)c2cc(N4c5ccccc5C(C)(C)c5ccccc54)cc4c5ccccc5n3c42)c2ccccc21 | 0.96
Cc1ccc2c(c1)c1cc(C)ccc1n2-c1c(-n2c3ccccc3c3ccccc32)cc(-c2nc(-c3ccccc3)nc(-c3ccccc3)n2)cc1-n1c2ccccc2c2ccccc21 | 0.98

---

Experiment: photoluminescence quantum yield (fraction); solvent given as SMILES
Settings: in CN(C)C=O
Parameter: photoluminescence quantum yield. Scope: all listed entries.

molecule | photoluminescence quantum yield
O=C1OC(c2ccccc2)=N/C1=C\c1ccc(N(c2ccccc2)c2ccccc2)cc1 | 0.014
COC(=O)C(Cc1ccc2oc(-c3ccc4c(c3)c3ccccc3n4-c3ccccc3)nc2c1)NC(=O)OC(C)(C)C (stereo not given) | 1
C(=C\c1ccc(-c2nnc(-c3ccccc3)o2)cc1)/c1ccc(-c2nnc(-c3ccccc3)o2)cc1 | 0.8
COCCOCCOCCOc1ccc(OCCOCCOCCOC)c(C=O)c1 | 0.02
[C-]#[N+]c1ccc(-c2ccc(N(C)C)cc2)cc1 | 0.86
CC1=CC(C)=[N+]2C1=C(c1ccc(-c3c4ccccc4c(-c4ccccc4)c4ccccc34)cc1)c1c(C)cc(C)n1[B-]2(F)F | 0.13
CCN(CC)c1ccc2c(c1)oc(=O)c1c(C)nc3c(c(-c4ccccc4)nn3-c3ccccc3)c12 | 0.51
c1ccc(-c2csc(-c3ccncc3)n2)cc1 | 0.041
COc1ccc(-c2csc(-c3ccncc3)n2)cc1 | 0.158
Cc1cccc(Nc2ccccc2C(=O)O)c1C | 0.0013

---

Parameter: photoluminescence quantum yield. Scope: all listed entries.
Test: photoluminescence quantum yield (fraction); solvent given as SMILES
Conditions: in CC1CCCCC1
endpoint: photoluminescence quantum yield

molecule | experimental result
COC(=O)C(Cc1ccc2oc(-c3ccc(N(c4ccccc4)c4ccccc4)cc3)nc2c1)NC(=O)OC(C)(C)C (configuration not stated) | 0.94
CCN(CC)c1ccc2cc(-c3nc4ccccc4s3)c(=O)oc2c1 | 0.56
COC(=O)C(NC(=O)OC(C)(C)C)c1ccc2oc(-c3ccc(F)cc3)nc2c1 (configuration not stated) | 0.49
CC(C)(C)c1ccc2cc3c4cccc5cccc(c6cc(C(C)(C)C)cc(c2c1)c63)c54 | 0.74
C=CCOc1ccc(-c2nc3cc(C(NC(=O)OC(C)(C)C)C(=O)OC)ccc3o2)cc1 (configuration not stated) | 0.84
O=C1OC(c2ccccc2)=N/C1=C\c1ccc(N(c2ccccc2)c2ccccc2)cc1 | 0.043
COC(=O)C(NC(=O)OC(C)(C)C)c1ccc2oc(-c3ccc(N(C)C)cc3OC)nc2c1 (configuration not stated) | 0.44
CN(C)c1ccc(C2=Cc3cccc[n+]3[B-](F)(F)O2)cc1 | 0.519
CCN(CC)c1ccc(-c2nc3cc(C(NC(=O)OC(C)(C)C)C(=O)OC)ccc3o2)c(O)c1 (configuration not stated) | 0.11
COC(=O)C(NC(=O)OC(C)(C)C)c1ccc2oc(-c3cc(C(F)(F)F)cc(C(F)(F)F)c3)nc2c1 (configuration not stated) | 0.54
COC(=O)C(NC(=O)OC(C)(C)C)c1ccc2oc(-c3cc(OC)c(OC)cc3OC)nc2c1 (configuration not stated) | 0.58
c1ccc2c(c1)Sc1ccc(-n3c4ccccc4c4ccccc43)cc1S2 | 0.04

---

Parameter: photoluminescence quantum yield. Scope: all listed entries.
Assay: photoluminescence quantum yield (fraction); solvent given as SMILES
Conditions: in Cc1ccccc1
endpoint: photoluminescence quantum yield

mol smiles | endpoint | experimental result
c1cc2ccc3cc4cccc5ccc6cc(c1)c2c3c6c54 | photoluminescence quantum yield | 0.47
COc1ccccc1-c1nc2c3cccnc3c3ncccc3c2n1-c1ccccc1 | photoluminescence quantum yield | 0.064
Cc1ccc(C2=[N+]3C(=Cc4ccc(C)n4[B-]3(F)F)c3ccccc32)[nH]1 | photoluminescence quantum yield | 0.78
N#C/C=C/c1ccc2ccc3cccc4ccc1c2c34 | photoluminescence quantum yield | 0.55
CCCCCCCCc1ccc(-n2c3c4ccccc4nnc3c3c2c2nnc4ccccc4c2n3-c2ccc(CCCCCCCC)cc2)cc1 | photoluminescence quantum yield | 0

---

Experiment: photoluminescence quantum yield (fraction); solvent given as SMILES
Conditions: in CC#N

molecule | photoluminescence quantum yield
FC(F)(F)c1ccc(/C=C/c2nc3c(ccc4ccccc43)s2)cc1 | 0.14
CC(C)(C)c1ccc(C2=C(c3ccc(C(C)(C)C)cc3)C(c3ccc(C(C)(C)C)cc3)=[N+]3C2=C(c2ccccc2)c2c(-c4ccc(C(C)(C)C)cc4)c(-c4ccc(C(C)(C)C)cc4)c(-c4ccc(C(C)(C)C)cc4)n2[B-]3(F)F)cc1 | 0.25
O=Cc1ccc2c(c1)c1ccccc1n2-c1cc2ccccc2c2ccccc12 | 0.015
CCc1c(C)c2n(c1C)[B-](F)(F)[N+]1=C(NCc3ccc(OC)cc3)C(SC#N)=CC1=C2C | 0.83
C/C=C/c1cc(OC)cc(OC)c1 | 0.05
COc1ccc(-c2csc(/C(C#N)=C/c3ccccc3Cl)n2)cc1 | 0.062
Cc1cccc2[n+]1[B-](F)(F)n1c(c3cccc4cccc1c43)=N2 | 0.99
CC(=O)c1c2c(c(C(C)=O)c3c1OC(CC(=O)O)O3)OCO2 | 0.43
CC1=CC(C)=[N+]2C1=C(c1ccc(-c3c4ccccc4c(-c4ccccc4)c4ccccc34)cc1)c1c(C)cc(C)n1[B-]2(F)F | 0.11
CCCCC1=Cc2c3ccc4cccc5ccc(c6cc(-c7ccc(N(c8ccccc8)c8ccccc8)cc7)n(c26)P1(=O)c1ccccc1)c3c45 (centres undefined) | 0.39
CC(=O)c1ccc(-c2nc3ccc(N(C)C)c(Br)c3s2)cc1 | 0.54
COc1cc(/C=C/c2nc3ccccc3s2)c(OC)cc1/C=C/c1ccncc1 | 0.5
Oc1ccc2ccccc2c1/C=N/c1ccccc1/N=C/c1c(O)ccc2ccccc12 | 0.3
COc1ccc2cc(/C=C/c3ccc([N+](=O)[O-])cc3)c(=O)oc2c1 | 0.24
CN(C)c1ccc(/C=C/C=C/c2nc3ccccc3o2)cc1 | 0.0055
C[Si](C)(c1cccc2ccccc12)[Si](C)(C)c1c2ccccc2cc2ccccc12 | 0.21
CN(C)c1ccc2c(c1)COc1c-2oc2ccccc2c1=O | 0.86
CCCSc1ccc2n1[B-](F)(F)[N+]1=CC=CC1=C2c1ccccc1 | 0.03
CCCCOC(=O)c1ccccc1-c1c2ccc(=[N+](CC)CC)cc-2oc2cc(N(CC)CC)ccc12 | 0.36
